Measured IC50 of individual entries
Target: human integrin αVβ8 (Homo sapiens, UniProt P06756+P26012)
Sequence (P06756 31-992 limits assumed): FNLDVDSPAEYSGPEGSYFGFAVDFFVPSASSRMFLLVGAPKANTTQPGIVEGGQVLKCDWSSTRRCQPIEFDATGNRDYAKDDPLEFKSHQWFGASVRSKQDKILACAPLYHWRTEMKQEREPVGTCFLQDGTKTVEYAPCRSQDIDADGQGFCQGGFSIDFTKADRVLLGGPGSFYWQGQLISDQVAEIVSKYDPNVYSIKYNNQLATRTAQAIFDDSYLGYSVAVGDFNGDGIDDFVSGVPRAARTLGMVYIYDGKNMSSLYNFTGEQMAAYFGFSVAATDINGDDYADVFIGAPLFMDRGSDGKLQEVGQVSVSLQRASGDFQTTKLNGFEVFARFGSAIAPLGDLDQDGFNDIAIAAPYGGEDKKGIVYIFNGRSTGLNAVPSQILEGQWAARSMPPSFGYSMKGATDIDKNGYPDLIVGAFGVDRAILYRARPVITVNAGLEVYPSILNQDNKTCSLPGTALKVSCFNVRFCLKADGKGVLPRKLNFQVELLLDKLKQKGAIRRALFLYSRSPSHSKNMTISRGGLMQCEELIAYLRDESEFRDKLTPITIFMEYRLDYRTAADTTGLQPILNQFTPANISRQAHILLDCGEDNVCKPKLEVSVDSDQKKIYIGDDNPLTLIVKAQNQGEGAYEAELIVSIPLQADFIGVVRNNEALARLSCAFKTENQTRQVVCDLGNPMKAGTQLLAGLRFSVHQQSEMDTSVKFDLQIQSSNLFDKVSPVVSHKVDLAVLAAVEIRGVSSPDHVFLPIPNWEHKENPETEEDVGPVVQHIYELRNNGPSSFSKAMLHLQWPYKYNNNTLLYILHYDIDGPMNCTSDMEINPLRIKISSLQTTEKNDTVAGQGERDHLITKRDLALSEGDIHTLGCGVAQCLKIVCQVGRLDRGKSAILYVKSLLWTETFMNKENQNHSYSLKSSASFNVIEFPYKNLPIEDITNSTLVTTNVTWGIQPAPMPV
Sequence (P26012 43-684 limits assumed): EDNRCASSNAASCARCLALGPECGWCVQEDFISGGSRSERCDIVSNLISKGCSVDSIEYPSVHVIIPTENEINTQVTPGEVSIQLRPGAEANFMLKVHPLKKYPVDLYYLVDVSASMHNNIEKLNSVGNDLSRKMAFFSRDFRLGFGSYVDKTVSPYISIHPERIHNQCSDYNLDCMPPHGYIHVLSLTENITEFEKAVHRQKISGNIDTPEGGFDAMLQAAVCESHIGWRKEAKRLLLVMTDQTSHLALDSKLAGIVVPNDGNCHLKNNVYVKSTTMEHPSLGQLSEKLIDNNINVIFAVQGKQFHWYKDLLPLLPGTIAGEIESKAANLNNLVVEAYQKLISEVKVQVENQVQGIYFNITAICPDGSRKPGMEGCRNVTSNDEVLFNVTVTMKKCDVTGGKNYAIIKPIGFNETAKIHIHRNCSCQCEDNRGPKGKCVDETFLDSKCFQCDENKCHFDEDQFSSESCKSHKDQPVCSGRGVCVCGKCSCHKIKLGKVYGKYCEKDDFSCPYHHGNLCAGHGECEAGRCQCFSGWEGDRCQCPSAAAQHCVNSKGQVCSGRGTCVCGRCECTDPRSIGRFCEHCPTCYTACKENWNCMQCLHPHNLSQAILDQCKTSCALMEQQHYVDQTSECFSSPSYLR
Test: AlphaScreen proximity-based integrin binding assay with TGF-b1 LAP
Settings: values given as ranges

Consider the following illustrative entries.
O=C(O)[C@H](CCOCCCCc1ccc2c(n1)NCCC2)NC(=O)C1(C(F)F)CCOC1 (stereo partly shown); 50 to 150 nM
O=C(O)[C@H](CCOCCCCc1ccc2c(n1)NCCC2)NC(=O)C1(c2cncnc2C(F)F)CC1; < 50 nM
Cc1cccc(C2(C(=O)N[C@@H](CCOCCCCc3ccc4c(n3)NCCC4)C(=O)O)CC2)n1; ≥ 500 nM
Cn1cc(C#N)c(C2(C(=O)N[C@@H](CCOCCCCc3ccc4c(n3)NCCC4)C(=O)O)CC2)n1; < 50 nM
COc1ncccc1C1(C(=O)N[C@@H](CCOCCCCc2ccc3c(n2)NCCC3)C(=O)O)CC1; 50 to 150 nM

Check the records and state IC50 for `CS(=O)(=O)c1ccccc1C1(C(=O)N[C@@H](CCOCCCCc2ccc3c(n2)NCCC3)C(=O)O)CC1`
250 to 500 nM

Consider the compound `O=C(O)[C@H](CCOCCCCc1ccc2c(n1)NCCC2)NC(=O)C1(c2[nH]cnc2Cl)CC1` . State its measured IC50.
< 50 nM

* * *

Target: human integrin αVβ1 (Homo sapiens, UniProt P05556+P06756)
Sequence (P06756 31-992 limits assumed): as the sequence (P06756 31-992 limits assumed) above
Sequence (P05556 21-728 limits assumed): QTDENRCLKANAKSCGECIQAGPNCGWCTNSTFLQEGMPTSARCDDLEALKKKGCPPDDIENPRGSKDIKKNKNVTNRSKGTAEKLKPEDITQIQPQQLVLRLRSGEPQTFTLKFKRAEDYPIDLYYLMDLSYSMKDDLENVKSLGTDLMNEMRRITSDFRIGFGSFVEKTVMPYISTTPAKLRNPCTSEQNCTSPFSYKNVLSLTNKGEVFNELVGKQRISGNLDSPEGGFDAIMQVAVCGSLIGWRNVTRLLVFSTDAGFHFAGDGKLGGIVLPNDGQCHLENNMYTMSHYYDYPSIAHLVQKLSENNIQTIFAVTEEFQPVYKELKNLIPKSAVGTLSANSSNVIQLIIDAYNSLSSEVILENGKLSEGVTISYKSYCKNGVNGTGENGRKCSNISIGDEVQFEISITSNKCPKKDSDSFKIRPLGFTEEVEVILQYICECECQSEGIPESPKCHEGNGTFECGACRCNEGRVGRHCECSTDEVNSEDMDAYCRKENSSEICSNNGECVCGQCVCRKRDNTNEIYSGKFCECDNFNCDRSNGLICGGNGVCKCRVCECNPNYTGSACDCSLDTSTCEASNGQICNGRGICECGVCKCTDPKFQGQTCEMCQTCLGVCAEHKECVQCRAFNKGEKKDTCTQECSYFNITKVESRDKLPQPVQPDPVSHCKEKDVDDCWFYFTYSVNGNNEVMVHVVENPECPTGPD
Assay: AlphaScreen proximity-based integrin binding assay with TGF-b1 LAP
Details: values given as ranges
property-measured: IC50

O=C(O)[C@H](CCOCCCCc1ccc2c(n1)NCCC2)NC(=O)C1(c2[nH]cnc2Cl)CC1; < 50 nM
O=C(O)[C@H](CCOCCCCc1ccc2c(n1)NCCC2)NC(=O)C1(c2ncccc2OC(F)F)CC1; < 50 nM
N#Cc1cccnc1C1(C(=O)N[C@@H](CCOCCCCc2ccc3c(n2)NCCC3)C(=O)O)CC1; < 50 nM
CC(C)(C(=O)NC(CCOCCCCc1ccc2c(n1)NCCC2)C(=O)O)c1ccccc1 (stereo not drawn); < 50 nM

--- query ---
Param request: IC50 | system human integrin αVβ1 (Homo sapiens, UniProt P05556+P06756) | item `Cc1cc(Cl)n(C2(C(=O)N[C@@H](CCOCCCCc3ccc4c(n3)NCCC4)C(=O)O)CC2)n1`
< 50 nM

* * *

Molecular target: human integrin αVβ6 (Homo sapiens, UniProt P06756+P18564)
Sequence (P06756 31-992 limits assumed): as the sequence (P06756 31-992 limits assumed) above
Sequence (P18564 22-707 limits assumed): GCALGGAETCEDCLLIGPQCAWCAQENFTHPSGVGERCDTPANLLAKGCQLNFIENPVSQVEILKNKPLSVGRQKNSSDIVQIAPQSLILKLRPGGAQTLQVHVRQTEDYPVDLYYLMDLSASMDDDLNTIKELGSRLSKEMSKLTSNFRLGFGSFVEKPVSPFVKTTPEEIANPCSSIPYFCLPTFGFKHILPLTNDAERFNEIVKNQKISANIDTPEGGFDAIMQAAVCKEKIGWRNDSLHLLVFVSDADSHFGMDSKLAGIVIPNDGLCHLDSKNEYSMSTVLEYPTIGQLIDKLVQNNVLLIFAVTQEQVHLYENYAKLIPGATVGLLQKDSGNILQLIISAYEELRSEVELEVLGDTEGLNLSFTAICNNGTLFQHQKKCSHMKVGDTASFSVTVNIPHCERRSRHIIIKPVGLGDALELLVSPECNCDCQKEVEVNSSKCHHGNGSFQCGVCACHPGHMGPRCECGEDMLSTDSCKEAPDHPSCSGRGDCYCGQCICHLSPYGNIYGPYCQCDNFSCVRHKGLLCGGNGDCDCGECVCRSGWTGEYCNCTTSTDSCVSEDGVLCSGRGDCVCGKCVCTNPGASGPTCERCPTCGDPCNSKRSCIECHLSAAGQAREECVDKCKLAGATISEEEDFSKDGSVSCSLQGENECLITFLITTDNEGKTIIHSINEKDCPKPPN
Experiment: AlphaScreen proximity-based integrin binding assay with TGF-b1 LAP
Settings: values given as ranges
Catalogue of IC50 readings, one per entry.

See these solved cases before continuing.
O=C(O)[C@H](CCOCCCCc1ccc2c(n1)NCCC2)NC(=O)C1(n2c(F)cccc2=O)CC1; > 500 nM
COc1cccc(=O)n1C1(C(=O)N[C@@H](CCOCCCCc2ccc3c(n2)NCCC3)C(=O)O)CC1; > 500 nM
O=C(O)[C@H](CCOCCCCc1ccc2c(n1)NCCC2)NC(=O)C1(C(F)(F)F)CCOCC1; 50 to 150 nM
O=C(O)[C@H](CCOCCCCc1ccc2c(n1)NCCC2)NC(=O)C1(c2ncccc2OC(F)F)CC1; ≥ 500 nM

Look up and report measured IC50 for this entry: `Cn1nccc1C1(C(=O)N[C@@H](CCOCCCCc2ccc3c(n2)NCCC3)C(=O)O)CC1`
≥ 500 nM

State its IC50: `Cc1nccnc1C1(C(=O)N[C@@H](CCOCCCCc2ccc3c(n2)NCCC3)C(=O)O)CC1`
≥ 500 nM
